target: SIK1 (Homo sapiens); construct: purchased Carna Biosciences 02-131; experiment: ADP-Glo kinase assay, SIK1; format: biochemical; settings: ADP-Glo SIK kinase assay
Sequence (P57059 whole entry): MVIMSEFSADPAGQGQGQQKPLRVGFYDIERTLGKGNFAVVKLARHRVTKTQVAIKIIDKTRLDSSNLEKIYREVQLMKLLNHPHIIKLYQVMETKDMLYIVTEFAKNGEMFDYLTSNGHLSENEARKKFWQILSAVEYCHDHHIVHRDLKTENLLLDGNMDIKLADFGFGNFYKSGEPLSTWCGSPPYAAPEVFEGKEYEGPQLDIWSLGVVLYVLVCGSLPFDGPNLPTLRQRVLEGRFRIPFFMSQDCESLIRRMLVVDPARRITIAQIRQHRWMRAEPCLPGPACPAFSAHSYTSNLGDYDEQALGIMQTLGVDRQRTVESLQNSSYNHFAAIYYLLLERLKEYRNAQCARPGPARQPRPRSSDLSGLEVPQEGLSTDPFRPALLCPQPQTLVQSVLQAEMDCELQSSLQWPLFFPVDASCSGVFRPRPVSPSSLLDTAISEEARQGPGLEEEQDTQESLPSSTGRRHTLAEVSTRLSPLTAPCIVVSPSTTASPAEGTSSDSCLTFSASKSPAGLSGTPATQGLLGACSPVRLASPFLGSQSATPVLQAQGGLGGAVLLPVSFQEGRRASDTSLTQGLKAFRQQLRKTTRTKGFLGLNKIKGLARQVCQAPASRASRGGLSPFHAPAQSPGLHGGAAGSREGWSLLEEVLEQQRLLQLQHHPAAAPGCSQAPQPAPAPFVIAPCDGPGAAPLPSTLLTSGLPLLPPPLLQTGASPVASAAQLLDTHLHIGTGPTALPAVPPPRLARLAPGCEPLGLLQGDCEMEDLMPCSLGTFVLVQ
pIC50: −log10 of the molar value.
Here, each record is paired with measured pIC50 data.

Solved cases (2 shown):
Need pIC50 of COc1cc(-c2cnc3cc(OCCN4C(C)CCCC4C)ccn23)cc(OC(F)F)c1C(=O)NC1CC1 (stereo not shown) [compound 294] , thanks.
7.00 to 8.00

Need pIC50 of COc1cc(-c2cnc3cc(OCCN4C5CCC4COC5)ccn23)cc(OC(F)F)c1C(=O)NC1CC1 [compound 193] , thanks.
7.00 to 8.00

More entries:
Need pIC50 of COc1cc(-c2cnc3cc(OCC(F)(F)F)ccn23)cc(OC(F)F)c1C(=O)NC1CC1 [compound 91] , thanks.
7.00 to 8.00

Need pIC50 of COc1cc(-c2cnc3cc(OC[C@H]4CCN(CCC#N)C4)ccn23)cc(OC(F)F)c1C(=O)NC1CC1 [compound 350] , thanks.
7.00 to 8.00

Need pIC50 of COc1cc(-c2cnc3cc(OCC(N)C(C)C)ccn23)cc(OC(F)F)c1C(=O)NC1CC1 (stereo not shown) [compound 121] , thanks.
7.00 to 8.00

Need pIC50 of COc1cc(-c2cnc3cc(OCC4CC(F)(F)C4)ccn23)cc(OC(F)F)c1C(=O)NC1CC1 [compound 52] , thanks.
8.00 to 11.00

Need pIC50 of COc1cc(-c2cnc3cc(OCC4CC4(F)F)ccn23)cc(OC(F)F)c1C(=O)NC1CC1 (stereo not shown) [compound 42] , thanks.
8.00 to 11.00
